All figures here come from PubChem BioAssay AID1919002.

- Tested on: 743489-274-T-PDC complex spheroid growth;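 further: spheroids exposed to agents for 7 days before readout; 100% = DMSO vehicle control wells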
- measurementDescription: Anticancer human tumor 743489-274-T-PDC patient-derived renal cell carcinoma cell line growth inhibition [AhR]
- reportedConditions: second compound 0.316 µM; first compound 0.949 µM; active compounds read low
measuredProperty: viability, T/C (%)
A number alone suffices; assume %.

Study these solved cases before continuing.
{"columns": ["compound", "viability, T/C (%)"],
 "data": [
  ["CCN(c1cc(-c2ccc(CN3CCOCC3)cc2)cc(C(=O)NCc2c(C)cc(C)[nH]c2=O)c1C)C1CCOCC1 + CC(CO)NC(=O)c1cc(-c2ccc(Cl)cc2)nn(-c2cnn(C)c2)c1=O", 90.5],
  ["O=C(C=Cn1cnc(-c2cc(C(F)(F)F)cc(C(F)(F)F)c2)n1)NNc1cnccn1 + Cc1ccccc1N=Nc1ccc(NC(=O)c2ccnn2C)c(C)c1", 103]
]}

Here's the next entry for you.
Incoming: Which viability, T/C value is on record for O=C(C=Cn1cnc(-c2cc(C(F)(F)F)cc(C(F)(F)F)c2)n1)NNc1cnccn1 + CC(CO)NC(=O)c1cc(-c2ccc(Cl)cc2)nn(-c2cnn(C)c2)c1=O ?
Outgoing: 101
